tested on: Amaranthus retoflexus (AMARE); assay: Glasshouse herbicide test, pre-emergence; type: in vivo; conditions: 1000 g/h, evaluated after 13 days, five point scale, second table
recorded.metric: percentage damage caused to the plant, AMARE, PRE Application

Some compounds with known percentage damage caused to the plant, AMARE, PRE Application results, for comparison:
Which value of percentage damage caused to the plant, AMARE, PRE Application has been reported for CCn1cnnc1NC(=O)c1ccc(S(C)(=O)=O)c(COCC(F)(F)F)c1Cl in the records?
5 (5=80-100%)

Need percentage damage caused to the plant, AMARE, PRE Application of CCc1nnc(NC(=O)c2ccc(S(C)(=O)=O)c(COCC(F)(F)F)c2Cl)n1C , thanks.
1 (1=0-19%)

Item under review: CCn1c(C)nnc1NC(=O)c1ccc(S(C)(=O)=O)c(COCC(F)(F)F)c1Cl . Reported percentage damage caused to the plant, AMARE, PRE Application?
4 (4=60-79%)

New cases:
Can you look up the measured percentage damage caused to the plant, AMARE, PRE Application of Cn1cnnc1NC(=O)c1ccc(C(F)(F)F)cc1S(C)(=O)=O for me?
5 (5=80-100%)

Data request, read-out percentage damage caused to the plant, AMARE, PRE Application, for Cc1ccc([N+](=O)[O-])c(C(=O)Nc2nncn2C)c1
2 (2=20-39%)

Fill in: percentage damage caused to the plant, AMARE, PRE Application of Cn1cnnc1NC(=O)c1cc(F)c(F)cc1[N+](=O)[O-] is ___
1 (1=0-19%)

The origin of these recorded values is patent US20150065345A1.
